tested on: HepG2-TP53BP1-CLTA; test: phenotypically active (imaging signature differs from DMSO and reproducible) at any of 0.3-9 uM (binary (1 = active, 0 = inactive)); higher = active; conditions: treatment time: 24 h
Form entry, call: pick from Y for active, N for inactive

Below are worked cases with known answers.
INSERT INTO assay_data (compound, classification) VALUES
  ('C[C@H](N[C@@H](CCc1ccccc1)C(=O)O)C(=O)N1CCC[C@H]1C(=O)O', 'N'),
  ('CN(C)CC/C=C1\c2ccccc2COc2ccc(CC(=O)O)cc21', 'N'),
  ('Clc1ccc(N/N=C(\c2ccccc2)c2ccccn2)nc1', 'Y');

Write down the call the test reported for this compound. Item: CCC1(c2ccccc2)C(=O)NCNC1=O
N

Write down the call the test reported for this compound. Item: O=C1Nc2ccc(F)cc2C1=C1Nc2ccccc2C1=NO
Y

Write down the call the test reported for this compound. Item: COc1ccc(-c2ccc3ncc4c(c3c2)n(-c2ccc(N3CCNCC3)c(C(F)(F)F)c2)c(=O)n4C)cn1
Y

Values from the supplement of paper PMC7411054
